Where do these numbers come from? They come from patent US5194645A.

- System: HX62
- Assay: In vitro cytotoxicity (SRB), HX62
- Type: cell-based, human
- Condition info: HX62, ovarian cancer, 48 to 96 hours
pIC50: −log10 of the molar value.
Property name: pIC50

INSERT INTO assay_data (molecule, target_desc, quantitative_readout) VALUES
  ('CC(C)(C)[NH][Pt]([NH2])([OH])([OH])([Cl])[Cl] [EX 4, trans-[PtCl2 (OH)2 NH3 (t-C4 H9 NH2)]]', 'HX62', 5.74),
  ('[NH2][Pt]([OH])([OH])([Cl])([Cl])[NH]Cc1ccccc1 [B, t[PtCl2 (OH2)NH3 (PhCH2 NH2)]]', 'HX62', 4.99),
  ('CC(C)[NH][Pt]([NH2])([OH])([OH])([Cl])[Cl] [EX 3, trans-[PtCl2 (OH)2 (NH3)((CH3)2 CHNH2)]]', 'HX62', 4.85),
  ('[NH2][Pt]([OH])([OH])([Cl])([Cl])[NH]C1CCCCC1 [EX 2, trans-[PtCl2 (OH)2 (NH3)(c-C6H11 NH2)]]', 'HX62', 5.23),
  ('C[NH][Pt]([NH2])([OH])([OH])([Cl])[Cl] [EX 6, trans-[PtCl2 (OH)2 NH3 (MeNH2)]]', 'HX62', 3.96),
  ('[NH2][Pt]([OH])([OH])([Cl])([Cl])[N]1CCOCC1 [EX 7, trans-[PtCl2 (OH)2 NH3 (morpholine)]]', 'HX62', 4.00),
  ('CC[N](CC)[Pt]([NH2])([OH])([OH])([Cl])[Cl] [EX 10, t-[PtCl2 (OH)2 NH3 (Et2 NH)]]', 'HX62', 5.49),
  ('[NH2][Pt]([OH])([OH])([Cl])([Cl])[NH]C1CCCC1 [EX 1, trans-[PtCl2 (OH)2 (NH3)(c-C5 H9 NH2)]]', 'HX62', 4.99),
  ('C1CN2CCC1CC2.[NH2][Pt]([OH])([OH])([Cl])[Cl] [EX 11, t-[PtCl2 (OH)2 NH3 (quinuclidine)]]', 'HX62', 4.40);

---

- Test system: 41M ®/41M
- Assay: Resistance factor 41M ®/41M
- Assay type: cell-based, human
- Condition info: ratio of IC50 resistant to nonresistant line, ovarian
Entries and their measured Resistance Factor 41M ®/41M follow.
Property name: Resistance Factor 41M ®/41M

INSERT INTO results (compound, target_desc, property_name, quantitative_readout) VALUES
  ('N.N.[Cl][Pt][Cl] [Cisplatin, cis-[PtCl2 (NH3)2], reference compound]', '41M ®/41M', 'Resistance Factor 41M ®/41M', 4.7),
  ('C[NH][Pt]([NH2])([OH])([OH])([Cl])[Cl] [EX 6, trans-[PtCl2 (OH)2 NH3 (MeNH2)]]', '41M ®/41M', 'Resistance Factor 41M ®/41M', 6.1),
  ('[NH2][Pt]([OH])([OH])([Cl])([Cl])[N]1CCOCC1 [EX 7, trans-[PtCl2 (OH)2 NH3 (morpholine)]]', '41M ®/41M', 'Resistance Factor 41M ®/41M', 2.1),
  ('[NH2][Pt]([OH])([OH])([Cl])([Cl])[NH]Cc1ccccc1 [B, t[PtCl2 (OH2)NH3 (PhCH2 NH2)]]', '41M ®/41M', 'Resistance Factor 41M ®/41M', 1.0),
  ('[NH2][Pt]([OH])([OH])([Cl])([Cl])[NH]C1CCCC1 [EX 1, trans-[PtCl2 (OH)2 (NH3)(c-C5 H9 NH2)]]', '41M ®/41M', 'Resistance Factor 41M ®/41M', 1.2),
  ('CC(C)[NH][Pt]([NH2])([OH])([OH])([Cl])[Cl] [EX 3, trans-[PtCl2 (OH)2 (NH3)((CH3)2 CHNH2)]]', '41M ®/41M', 'Resistance Factor 41M ®/41M', 1.4),
  ('[NH2][Pt]([OH])([OH])([Cl])([Cl])[NH]C1CCCCC1 [EX 2, trans-[PtCl2 (OH)2 (NH3)(c-C6H11 NH2)]]', '41M ®/41M', 'Resistance Factor 41M ®/41M', 1.2),
  ('CC(C)(C)[NH][Pt]([NH2])([OH])([OH])([Cl])[Cl] [EX 4, trans-[PtCl2 (OH)2 NH3 (t-C4 H9 NH2)]]', '41M ®/41M', 'Resistance Factor 41M ®/41M', 0.8);
